# Test system: Pseudomonas aeruginosa
# TEST: Antimicrobial activity against Pseudomonas aeruginosa at 1 mg/ml by well plate method
# Assay type: functional
# STATED CONDITIONS: read-out: DIZ
Consider the following molecules; for each one, report its zone of inhibition at 1000 µg/mL.
One number for each entry, in mm.

Sample records with zone of inhibition at 1000 µg/mL:
MOLECULE	UNIT ABBREV	zone of inhibition at 1000 µg/mL
CC(C)(C)C(=O)Nc1nnc(-c2ccc(N3CCCC3)c([N+](=O)[O-])c2)s1	mm	6
CC(C)(C)C(=O)Nc1nnc(-c2ccc(NC3CCCCC3)c([N+](=O)[O-])c2)s1	mm	9
COc1ccc(-c2cn3nc(-c4ccc(N5CCCC5)c([N+](=O)[O-])c4)sc3n2)cc1	mm	6
CCCCNc1ccc(-c2nn3cc(-c4ccc(OC)cc4)nc3s2)cc1[N+](=O)[O-]	mm	7
CCN(CC)c1ccc(-c2nn3cc(-c4ccc(OC)cc4)nc3s2)cc1[N+](=O)[O-]	mm	3

// input: 6 molecules below; output: zone of inhibition at 1000 µg/mL for each
1. CC(C)(C)C(=O)Nc1nnc(-c2ccc(NCc3ccc(F)cc3F)c([N+](=O)[O-])c2)s1
2. COc1ccc(-c2cn3nc(-c4ccc(N(C)C)c([N+](=O)[O-])c4)sc3n2)cc1
3. CN[C@@H]1[C@H](O[C@H]2[C@H](O[C@H]3[C@H](O)[C@@H](O)[C@H](N=C(N)N)[C@@H](O)[C@@H]3N=C(N)N)O[C@@H](C)[C@]2(O)C=O)O[C@@H](CO)[C@H](O)[C@H]1O [STREPTOMYCIN]
4. CC(C)(C)C(=O)Nc1nnc(-c2ccc(N3CCC(c4ccc(C(F)(F)F)cc4)CC3)c([N+](=O)[O-])c2)s1
5. CC(C)(C)C(=O)Nc1nnc(-c2ccc(Nc3ccc(F)cc3)c([N+](=O)[O-])c2)s1
6. CC(C)(C)C(=O)Nc1nnc(-c2ccc(N3CCOCC3)c([N+](=O)[O-])c2)s1

[A]
1: 4; 2: 6; 3: 19; 4: 7; 5: 6; 6: 13

Count: 5. Required value per item: zone of inhibition at 1000 µg/mL.
1. CC(C)(C)C(=O)Nc1nnc(-c2ccc(NC3CCCC3)c([N+](=O)[O-])c2)s1
2. COc1ccc(-c2cn3nc(-c4ccc(NC5CCCCC5)c([N+](=O)[O-])c4)sc3n2)cc1
3. COc1ccc(-c2cn3nc(-c4ccc(NCC5CCCO5)c([N+](=O)[O-])c4)sc3n2)cc1 (configuration not stated)
4. COc1ccc(-c2cn3nc(-c4ccc(NCc5ccc(F)cc5F)c([N+](=O)[O-])c4)sc3n2)cc1
5. COc1ccc(-c2cn3nc(-c4ccc(N5CCN(C)CC5)c([N+](=O)[O-])c4)sc3n2)cc1

[A]
3
9
13
4
5

[Q] // fetch zone of inhibition at 1000 µg/mL given entry "CN1CCN(c2ccc(-c3nnc(NC(=O)C(C)(C)C)s3)cc2[N+](=O)[O-])CC1"
[A] 3
